# MEASUREMENT_TARGET: BSA-glutathione (bovine) (UniProt P02769)
# PROTOCOL_DESCRIPTION: ELISA, culture supernatant on BSA-GSH plates without mercury
absorbance at 405 nm (absorbance at 405 nm) values, listed per item
Returns: the value as a bare number; no unit string appended.

BINDER	VAL
monoclonal antibody 23F8 (antibody, V domains shown) VH: SGPELVKTGASVKISCKASGYSFTGYYMHWVKQSHGKSLEWIGYISCYNGATSYNQKFKGKATFTVDTSSSTAYMQFNSLTSEDSAVYYCARSGIYDVTTTLTTGAKAPLSQSP VL: DIQMTQSPSSLSASLGGKVTITCKASQDINKYIAWYQHKPGKGPRLLIHYTSTLQPGIPSRFSGSGSGRDYSFSISNPEPEDIATYYCLQYDNSLFTFGSGTKLEIK	0.168

**Q:** # lookup: absorbance at 405 nm (absorbance at 405 nm) of monoclonal antibody 5B6 (antibody, V domains shown) VH: SGGGSVKPGGSLKLSCAASGFTFSSRAMSWVRQTPEKRLEWVATISSGGSYTYYPDSVKGRFTISRHNAENTLYFQMSSLRSEDTAIYYCVRQTGYYGNYEWFAYWGQGLLVTVSA VL: DIQMTQSPSSLSASLGERVTLTCRASQDIGSSLNWLQLKPDGTIKRLIYATSGLDSGVPKRFSGSRSGSDYSLTINSPESEDFVDYYCLQCSNSPYTFGGGTKLEIN
**A:** 0.019

**Q:** Proceed to monoclonal antibody 5G4 (antibody, V domains shown) VH: SVPARLKPGASVRISCKASAYSFTGYFMNWMKQSHGKTLEWIGRINPYNGDTFYNQKFKSKATVTVDKSSSTAHMELLSLTSEDSAVYYCGTQPLDYWGQGTTLTVSS VL: DIQMTQSPSSLSASLGERVTLTCRASQDIGSSLNWLQLKPDGTIKRLIYATSGLDSGVPKRFSGSRSGSDYSLTINSPESEDFVDYYCLQCSNSPYTFGGGTKLEIK
**A:** 0.028
